testedOn: SARS-CoV-2 Main Protease (SARS-CoV-2) (UniProt P0DTD1)
protocolConditions: 20.0 µM
quantityKind: inhibition (%)
Express your answer in %, writing the number without its unit.

[ask] Name the recorded inhibition of the molecule listed here: O=C(Nc1nncn1C1CC1)C1CCOc2ccc(Cl)cc21 (configuration not stated)
[reply] 46.7

[ask] Name the recorded inhibition of the molecule listed here: O=C(NCc1cncs1)Nc1cccc(N2CCOCC2)c1
[reply] 5.65

[ask] Name the recorded inhibition of the molecule listed here: Cc1ccncc1CC(=O)Nc1cccc2c1CNCC2
[reply] -1.08

[ask] Name the recorded inhibition of the molecule listed here: O=C(NC1CCCCC1NC(=O)C1CCCCC1)c1ccncc1 (configuration not stated)
[reply] -14.4

[ask] Name the recorded inhibition of the molecule listed here: C=CC(=O)N(c1ccc(C(C)(C)C)cc1)C(C(=O)NCCOC)c1cccnc1 (configuration not stated)
[reply] 35.7

[ask] Name the recorded inhibition of the molecule listed here: CC(C)Cn1cc(NC(=O)NCCN2CCOCC2)c2ccccc2c1=O
[reply] -1.08

[ask] Name the recorded inhibition of the molecule listed here: C=CC(=O)N(c1ccc(C(C)C)nc1)C(C(=O)Nc1ccc(OC)cc1C)c1cccnc1 (configuration not stated)
[reply] 6.56

[ask] Name the recorded inhibition of the molecule listed here: Cc1ccc(S(=O)(=O)N2CCN(C(=O)c3cc(=O)[nH]c4ccc(Cl)cc34)CC2)cc1
[reply] -0.869

[ask] Name the recorded inhibition of the molecule listed here: CCCN(C(=O)Cc1cccc(Cl)c1)c1cccnc1
[reply] 2.28

[ask] Name the recorded inhibition of the molecule listed here: Cc1cc(Cn2nnc3c(-c4ccco4)nc(N)nc32)ccc1N
[reply] 1.89

[ask] Name the recorded inhibition of the molecule listed here: CS(=O)(=O)Cc1ccc(C(=O)Nc2cccnc2)o1
[reply] 0.469

[ask] Name the recorded inhibition of the molecule listed here: O=C1CC(c2cccc(NC(=O)Cc3cncnc3)c2)CN1 (configuration not stated)
[reply] 3.83

[ask] Name the recorded inhibition of the molecule listed here: CCN(CC1COc2ccccc2O1)C(=O)c1cc(=O)[nH]c2ccc(Cl)cc12 (configuration not stated)
[reply] 8.72

[ask] Name the recorded inhibition of the molecule listed here: C=CC(=O)N(c1ccc(C(C)(C)C)cc1)C(C(=O)N[C@H]1CC[C@@H](C(=O)OC)C1)c1cccnc1 (stereo in doubt)
[reply] 7.31

[ask] Name the recorded inhibition of the molecule listed here: CCOC(=O)c1cc(-c2ccccc2)sc1NC(=O)Cc1csc(-c2ccccc2)n1
[reply] 91.8

[ask] Name the recorded inhibition of the molecule listed here: C=CC(=O)N(c1ccc(C(C)(C)C)cc1)C(C(=O)NCC1CCOC1)c1cccnc1 (configuration not stated)
[reply] 25.7

[ask] Name the recorded inhibition of the molecule listed here: C=CC(=O)N(C1CCC2(CCCC2)CC1)C(C(=O)NC(C)(C)C)c1cccnc1 (configuration not stated)
[reply] -5.6

[ask] Name the recorded inhibition of the molecule listed here: O=C(COc1ccccc1)NCCc1ccccc1
[reply] -0.178

[ask] Name the recorded inhibition of the molecule listed here: O=C(CCl)N1CCN(Cc2cc(O)ccc2O)CC1
[reply] 57.4

[ask] Name the recorded inhibition of the molecule listed here: COC(=O)c1sccc1NC(=O)Nc1cn(CC(C)C)c(=O)c2ccccc12
[reply] -3.98

[ask] Name the recorded inhibition of the molecule listed here: CC(=O)c1cccc(NC(=O)Nc2cn(C)c(=O)c3ccccc23)c1
[reply] 22.4

[ask] Name the recorded inhibition of the molecule listed here: NS(=O)(=O)c1ccc(C(=O)N2Cc3ccccc3C(c3ccccc3)C2)cc1 (configuration not stated)
[reply] 0.809
